assay: Antioxidant activity assessed as trolox equivalent of inhibition of Fe3+ ion-induced 2-deoxyribose oxidation after 24 hrs by TBA method; type: functional
Measured Metric: Activity

{"Compound": "COc1ccc(/C=C/C(=O)OC[C@H]2O[C@@H](O[C@H]3OC=C[C@@]4(O)[C@@H]3[C@](C)(O)C[C@@H]4O)[C@H](O[C@@H]3O[C@H](CO)[C@@H](O)[C@H](O)[C@H]3O)[C@@H](O)[C@@H]2O)cc1", "Recorded Result": 1.4}
{"Compound": "C[C@@H]1O[C@@H](O[C@@H]2[C@@H](O)[C@H](OCCc3ccc(O)c(O)c3)O[C@H](CO)[C@H]2OC(=O)/C=C/c2ccc(O)c(O)c2)[C@H](O)[C@H](O)[C@H]1O [ACETOSIDE]", "Recorded Result": 0.5}
{"Compound": "COc1cc(/C=C/C(=O)OC[C@H]2O[C@@H](OCCc3ccc(O)c(O)c3)[C@H](O)[C@@H](O[C@@H]3O[C@@H](C)[C@H](O)[C@@H](O)[C@H]3O[C@@H]3OC[C@H](O)[C@@H](O)[C@H]3O)[C@@H]2O)ccc1O", "Recorded Result": 0.5}
{"Compound": "CC(=O)O[C@]1(C)C[C@H](O)[C@@]2(O)C=CO[C@H](O[C@@H]3O[C@H](CO)[C@@H](O)[C@H](O)[C@H]3O)[C@H]21", "Recorded Result": 0.3}
{"Compound": "COc1ccc(/C=C/C(=O)OC[C@H]2O[C@@H](O[C@H]3OC=C[C@@]4(O)[C@@H]3[C@](C)(O)C[C@@H]4O)[C@H](O)[C@@H](O)[C@@H]2O)cc1", "Recorded Result": 1.4}

---

assay: Antioxidant activity assessed as inhibition of Fe3+ ion-induced 2-deoxyribose oxidation after 24 hrs by TBA method; type: functional
Measured Metric: IC50

{"Smiles Repr": "COc1ccc(/C=C/C(=O)OC[C@H]2O[C@@H](O[C@H]3OC=C[C@@]4(O)[C@@H]3[C@](C)(O)C[C@@H]4O)[C@H](O)[C@@H](O)[C@@H]2O)cc1OC", "Recorded Result": "26.5 µM"}
{"Smiles Repr": "COc1cc(/C=C/C(=O)O[C@H]2[C@H](O[C@@H]3O[C@@H](C)[C@H](O)[C@@H](O)[C@H]3O[C@@H]3OC[C@H](O)[C@@H](O)[C@H]3O)[C@@H](O)[C@H](OCCc3ccc(O)c(O)c3)O[C@@H]2CO)ccc1O", "Recorded Result": "32 µM"}
{"Smiles Repr": "C[C@@H]1O[C@@H](O[C@@H]2[C@@H](O)[C@H](OCCc3ccc(O)c(O)c3)O[C@H](COC(=O)/C=C/c3ccc(O)c(O)c3)[C@H]2O)[C@H](O[C@@H]2OC[C@H](O)[C@@H](O)[C@H]2O)[C@H](O)[C@H]1O", "Recorded Result": "33.5 µM"}
